TEST_SUMMARY: small-molecule microarray binders of probe aLefty2, primary screen, biochemical, biotinylated probe, 635/667 nm fluorescence (AID 1094);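 further: score merges spot fluorescence near 667 nm with spot signal-to-noise ratio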
EXPERIMENTAL_PARAMETERS: higher = more signal
For each entry below, report its composite z-score value.
Number only, please.

Give the measured composite z-score of "CC(C)C(=C=CC[C@H](O)c1cccc(OCCO)c1)CCO" .
-0.285

Try "COCCOC(=O)N1C(=O)[C@@]2(c3cc(C#CCNC(N)=O)ccc31)[C@H](c1ccc(OCCO)cc1)N1[C@H](c3ccccc3)[C@H](c3ccccc3)OC(=O)[C@H]1[C@@H]2C(=O)NC[C@H](O)c1ccccc1" next.
0.19

Try C=CCC(OC(C)=O)[C@@H]1[C@@H](N(Cc2ccc(-c3ccccc3)cc2)C(=O)c2ccc(C)cc2)c2cc(OCCCO)ccc2N1C(=O)Cc1ccc2ccccc2c1 (some centres not stated) next.
-0.0042

Try "CCOC(=O)C[C@H]1[C@H](OC(=O)c2cc3ccccc3oc2=O)[C@@H](NC(=O)c2ccc3ccccc3c2)c2cc(OCCCO)ccc2N1C(=O)Cc1ccc(OC)cc1" next.
-0.0359

Try CC(C)OC(=O)CC(=O)CC(O)c1ccc([N+](=O)[O-])cc1 (configuration not stated) next.
0.0416

Try "C=CCNC(=O)[C@H]1[C@@H]2C(=O)O[C@@H](c3ccccc3)[C@@H](c3ccccc3)N2[C@@H](c2ccc(OCCO)cc2)[C@]12C(=O)Nc1ccc(C#CCNC(N)=O)cc12" next.
0.155

Try CC(=O)n1cc(C(O)C2C=CC3C(=O)N(c4ccccc4)C(=O)C3N2Nc2ccc(C(C)C)cc2)c2ccccc21 (configuration not stated) next.
0.353

###

TEST_SUMMARY: E. coli DRC41 culture turbidity changes, primary screen, E. coli filamentation inducer project, strain DRC41, OD650, 48 h (AID 1152);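 further: E. coli MC1000 strain DRC41 lacking acrAB efflux pump and sulA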
EXPERIMENTAL_PARAMETERS: E. coli DRC41 (acrAB sulA), higher = more signal, called active from +8 up or from −8 down
Please use T whenever z-score is not below 0.2, and F whenever it is.

API: above_or_equal(metric=z-score, cutoff=0.2) for item "CCOC(=O)C1=C[C@@H](C(C)(C)C)N(S(=O)(=O)c2ccc(C)cc2)[C@H]1c1ccc(C)cc1"
F

Try "COC(=O)[C@@]1(Cc2ccccc2CN=[N+]=[N-])N=C(c2ccc(OCCCO)cc2)O[C@H]1c1ccccc1CN=[N+]=[N-]" next.
F

Try "CC(C)CNC(=O)[C@@]1(C)c2ccccc2C(=O)N(Cc2cc(C(F)(F)F)cc(C(F)(F)F)c2)[C@H]1c1ccc(CO)cc1" next.
T

Try "NC(=O)NCC#Cc1ccc2c(c1)[C@]1(C(=O)N2)[C@H](C(=O)N2CCN(c3ncccn3)CC2)[C@H]2C(=O)O[C@H](c3ccccc3)[C@H](c3ccccc3)N2[C@@H]1c1ccc(OCCO)cc1" next.
T

Try "COCCOC(=O)N1C(=O)[C@@]2(c3ccccc31)[C@H](c1ccccc1OCCO)N1[C@H](c3ccccc3)[C@H](c3ccccc3)OC(=O)[C@H]1[C@@H]2C(=O)N1CCCCCCC1" next.
F

Try "CN(C)C(=O)[C@@]1(Cc2ccccc2)COC(c2ccc(OCCCO)cc2)=N1" next.
T

Try "[N-]=[N+]=NCc1ccccc1[C@@H]1OC(c2ccc(OCCCO)cc2)=N[C@]1(Cc1ccccc1N=[N+]=[N-])C(=O)N1CCCCC1" next.
F

Try "CCCC=C(CCC)[C@@H](NC(=O)CCc1ccccc1)c1ccc(C(F)(F)F)cc1" next.
F

Try "C=C(C(=O)CC[C@H](OC(=O)c1ccccc1-c1ccccc1C(=O)O)c1ccccc1OCCO)C(C)C" next.
T

Try O=C1C2C=CC(C(O)C=Cc3ccc([N+](=O)[O-])cc3)N(Nc3ccccc3)C2C(=O)N1c1ccccc1 (stereo not drawn) next.
F

Try "COc1ccc([Si](C)(C)[C@H]2[C@H](CCO)O[C@@]3(C(=O)N(Cc4ccc(N5C(=O)c6ccccc6Oc6ccccc65)cc4)c4ccccc43)[C@@H]2C)cc1" next.
F

Try "Cc1ccc(S[C@]2(C(=O)NC(C)C)CC(=O)N(C(C)C)[C@@H]2c2ccc(CO)cc2I)cc1" next.
F

Try "COc1ccc(C(=O)Nc2cccc(CN3C(=O)[C@]4(O[C@H](CCn5cc([C@H](O)c6ccccc6)nn5)[C@@H]([Si](C)(C)c5ccc(OC)cc5)[C@@H]4C)c4ccccc43)c2)cc1" next.
T

Try "C=C(COC)C(=O)CC[C@@H](OC(=O)c1cccnc1)c1ccccc1OCCO" next.
F

Try "[N-]=[N+]=NC[C@H](Cc1ccccc1)NC(=O)c1ccccc1" next.
T

Try "Cc1ccc(S[C@]2(C(=O)NC(C)C)CC(=O)N(Cc3ccccc3Cl)[C@@H]2c2ccc(CO)cc2)cc1" next.
F

Try "O=C1O[C@H](c2ccccc2)[C@H](c2ccccc2)N2[C@H]1[C@@H](C(=O)Nc1nc3ccccc3s1)[C@]1(C(=O)Nc3ccc(C#CC4=CCCCC4)cc31)[C@H]2c1ccc(O)cc1" next.
T

Try "Cc1ccc(F)cc1S(=O)(=O)N[C@@H]1CCN(Cc2cccc3[nH]ccc23)C1" next.
F

Try "O=C1O[C@H](c2ccccc2)[C@H](c2ccccc2)N2[C@H]1[C@@H](C(=O)O)[C@]1(C(=O)Nc3ccc(C#CC4(O)CCCCCC4)cc31)[C@H]2c1ccc(O)cc1" next.
T

Try C=CCC(OC(C)=O)[C@@H]1[C@@H](N(Cc2ccc(-c3cccc(C(F)(F)F)c3)o2)C(=O)c2cccc3ccccc23)c2cc(OCCCO)ccc2N1C(=O)Cc1ccc(OC)cc1 (stereo partly drawn) next.
T

Try "COCC(=C=CC[C@@H](O)c1ccc(OCCO)cc1)CCO" next.
T

Try "O=C(NCCN1CCOCC1)[C@@H]1c2ccccc2C(=O)N(Cc2ccccc2)[C@H]1c1ccc(CO)cc1" next.
T

Try CC(=O)n1cc(C(O)C2C=CC3C(=O)N(c4ccccc4)C(=O)C3N2Nc2ccc(C(C)C)cc2)c2ccccc21 (stereo not drawn) next.
F

Try "CC(C)CNC(=O)[C@@H]1c2ccccc2C(=O)N(C2CCCCC2)[C@H]1c1ccc(CO)cc1" next.
T

Try CC(C)=CCCC(C)=CC(O)C1C=CC2C(=O)N(c3ccccc3)C(=O)C2N1Nc1ccccc1F (stereo not drawn) next.
T

Try "C=C(/C(=C/C[C@@H](OC(C)=O)c1ccc(CO)o1)c1cc(C(=O)OC)ccc1OC)C(C)C" next.
T

Try CC(C)C[C@@H]1NC(=O)[C@@]23C(=O)N[C@@H](Cc4ccccc4)C2[C@H](C)[C@@]2(C)O[C@H]2C3/C=C/C/C=C\CNC(=O)[C@@H](C)NC1=O (stereo partly drawn) next.
T

Try "C=CCOC(=O)[C@H]1[C@@H]2C(=O)O[C@@H](c3ccccc3)[C@@H](c3ccccc3)N2[C@@H](c2ccc(OCCOC(=O)[C@H]3C[C@H]4C(=O)N[C@@H](CCCCNC(C)=O)C(=O)N4[C@H]3c3cccc(OCCO)c3)cc2)[C@]12C(=O)Nc1ccc(I)cc12" next.
T

###

TARGET_ENTITY: NADPH oxidase 5 (Homo sapiens)
TEST_SUMMARY: NOX5-dependent H2O2 signal modulators, primary screen, NOX inhibitor project, cell-based, HEK293-NOX5, Amplex Red fluorescence (AID 1161)
EXPERIMENTAL_PARAMETERS: HEK293-NOX5, ionomycin, 45 min, higher = more signal
READOUT_LABEL: z-score
Number only, please.

I'm curious: which z-score was measured for Cc1ccccc1C(O)C1C=CC2C(=O)NC(=O)C2N1Nc1ccc(Cl)cc1Cl (configuration not stated) tested on NADPH oxidase 5 (Homo sapiens)?
-2.02

Try "C=CCNC(=O)[C@@H]1[C@H]2C(=O)O[C@H](c3ccccc3)[C@H](c3ccccc3)N2[C@H](c2ccc(O)cc2)[C@@]12C(=O)N(C(=O)OCCOC)c1ccc(C#CCCO)cc12" next.
1.06

Try CC1CC/C=C\[C@H]2OC34C=CCN(CCN5CCOCC5)C(=O)[C@H]3N(C(C)CO)C(=O)[C@@H]4C2C(=O)O1 (some centres not stated) next.
1.58

Try "CN1C(=O)[C@@H]2[C@@H](CC(COc3ccccc3)=C([C@H](O)CCc3ccccc3)[C@@H]2CO)C1=O" next.
0.199

Try "COc1ccc(C#Cc2ccc3c(c2)[C@]2(C(=O)N3)[C@H](C(=O)Nc3nc4ccccc4s3)[C@H]3C(=O)O[C@H](c4ccccc4)[C@H](c4ccccc4)N3[C@@H]2c2ccccc2OCCO)cc1" next.
0.268

Try CC(C)=CCCC(C)=CC(O)C1C=CC2C(=O)N(c3ccccc3)C(=O)C2N1Nc1ccccc1F (configuration not stated) next.
0.83

Try "[N-]=[N+]=NCc1ccccc1[C@H]1OC(c2ccc(OCCCO)cc2)=N[C@@]1(CCS(=O)(=O)c1ccccc1)C(=O)NCc1ccccc1" next.
-0.887
